- System: C. elegans
- experimentNotes: microbe, parasite or virus in culture
- conditionSet: Caenorhabditis elegans, 24 h, read-out: Percentage of motility inhibition 24 h, Table S2, C. elegans SS assay, 110 μM, 24 h, averages of 4 data points
Label 0.0 if inhibition at 110 µM falls below 9%; label 1.0 in every other case.

Solved entries:
molecule="Cc1ncc([N+](=O)[O-])n1CC(O)CCl (stereo not shown)" class=0.0
molecule=Nc1ccn([C@@H]2O[C@H](CO)[C@@H](O)[C@H]2O)c(=O)n1 class=0.0
molecule="CCCCC(O)(Cn1cncn1)c1ccc(Cl)cc1Cl (stereo not shown)" class=1.0
molecule=NC(=O)N/N=C/c1ccc([N+](=O)[O-])o1 class=1.0
molecule=C[C@H]1CO[C@@H]2Cn3cc(C(=O)NCc4ccc(F)cc4F)c(=O)c(O)c3C(=O)N12 class=0.0
molecule=O=C1/C(=C/c2ccc(O)c(O)c2)COc2cc(O)ccc21 class=0.0

Assess whether reported inhibition at 110 µM for "COc1cc(O)c2c(=O)cc(-c3ccc(OC)c(-c4c(O)cc(O)c5c(=O)cc(-c6ccc(O)cc6)oc45)c3)oc2c1" sits at 9% or higher.
1.0

Is the recorded value of inhibition at 110 µM equal to or greater than 9% for this molecule? Cc1c(C)[n+](Cc2ccccc2)cn1Cc1ccccc1 [Lepidiline A]
1.0

Evaluate "CC(C)c1nc(CN(C)C(=O)N[C@H](C(=O)N[C@@H](Cc2ccccc2)C[C@H](O)[C@H](Cc2ccccc2)NC(=O)OCc2cncs2)C(C)C)cs1" : inhibition at 110 µM at minimum 9%?
0.0
